Recorded values, source patent US9102638B2.

- Tested on: SK-MEL-28
- test.name: In vitro cytotoxicity, NCI screen: SK-MEL-28 (Melanoma)
- Format: cell-based
- assay.conditions: Homo sapiens; SK-MEL-28, Melanoma panel, NCI protocol; read-out: GI50 values (μM conc.)
Binary label based on GI50 with cut-off 4 µM: below gives rule met, not below gives rule not met.

compound="COc1ccc(/C=C\\c2cc(OC)c(OC)c(OC)c2)cc1OCC(=O)Nc1nc2ccc(C(F)(F)F)cc2s1 [Compound 8i]" class_assignment="rule met"
compound="COc1ccc(/C=C\\c2cc(OC)c(OC)c(OC)c2)cc1OCC(=O)Nc1nc2ccc(F)cc2s1 [Compound 8e]" class_assignment="rule not met"
compound="COc1ccc(C2CC(c3cc(OC)c(OC)c(OC)c3)=NN2C(C)=O)cc1OCC(=O)Nc1nc2ccc(C(F)(F)F)cc2s1 (stereo not drawn) [Compound 10i]" class_assignment="rule met"
compound="COc1ccc(/C=C/C(=O)c2cc(OC)c(OC)c(OC)c2)cc1OCC(=O)Nc1nc2ccc(OC(F)(F)F)cc2s1 [Compound 9j]" class_assignment="rule met"
compound="COc1ccc(/C=C\\c2cc(OC)c(OC)c(OC)c2)cc1OCC(=O)Nc1nc2ccc(OC(F)(F)F)cc2s1 [Compound 8j]" class_assignment="rule not met"
compound="COc1ccc2nc(NC(=O)COc3cc(/C=C\\c4cc(OC)c(OC)c(OC)c4)ccc3OC)sc2c1 [Compound 8g]" class_assignment="rule not met"
